# tested_target: UniProt Q13526
# Sequence (Q13526 whole entry): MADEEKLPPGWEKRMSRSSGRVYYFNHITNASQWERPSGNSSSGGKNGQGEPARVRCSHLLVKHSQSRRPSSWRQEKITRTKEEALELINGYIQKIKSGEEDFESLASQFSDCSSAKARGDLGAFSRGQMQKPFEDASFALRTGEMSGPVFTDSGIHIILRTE
test_readout: IC50 (µM)

{"columns": ["molecule", "tested_target", "test_readout", "endpoint_result"],
 "data": [
  ["CC(=O)N[C@@H](COP(=O)(O)O)C(=O)[C@@H]1CCCC[C@H]1C(=O)NCCc1c[nH]c2ccccc12", "UniProt Q13526", "IC50", 260]
]}

This collection of values is drawn from paper PMC3446931.
